Source of measurements: paper PMC11129182

target: PARK7 (Homo sapiens, UniProt Q99497); assay: Hit validation and pure-compound testing in the PARK7 FP assay with JYQ-107; assay type: biochemical; conditions: crude compounds, 0.5 µM; read-out: % Inhibition 0.5 µM
Measured Endpoint: inhibition at 0.5 µM (%)
Reply with just the number (in %).

// solved cases for inhibition at 0.5 µM follow
N#CN1CC[C@@H](C(=O)Nc2nc3c(s2)CN(C(=O)c2cn(CCc4ccccc4)nn2)CC3)C1 [Compound 76] :: 78
N#CN1CC[C@@H](C(=O)Nc2nc3c(s2)CN(C(=O)c2cc(S(=O)(=O)NCCCN4CCCC4=O)ccc2Cl)CC3)C1 [Compound 146] :: 70.4
CC1CCCCN1S(=O)(=O)c1ccccc1C(=O)N1CCc2nc(NC(=O)[C@@H]3CCN(C#N)C3)sc2C1 (stereo partly drawn) [Compound 386] :: 79.9
N#CN1CC[C@@H](C(=O)Nc2nc3c(s2)CN(C(=O)c2cc(-c4ccco4)on2)CC3)C1 [Compound 139] :: 80.9
CC(C)c1nc(Cn2cc(C(=O)N3CCc4nc(NC(=O)[C@@H]5CCN(C#N)C5)sc4C3)ccc2=O)cs1 [Compound 149] :: 69.6

Consider the compound N#CN1CC[C@@H](C(=O)Nc2nc3c(s2)CN(C(=O)c2cnn(-c4cccc(Br)c4)c2)CC3)C1 [Compound 156] and give its measured inhibition at 0.5 µM.
79.8

====

inhibition at 0.25 µM values, listed per item
Molecular target: UniProtKB Q99497
Sequence (Q99497 1-189): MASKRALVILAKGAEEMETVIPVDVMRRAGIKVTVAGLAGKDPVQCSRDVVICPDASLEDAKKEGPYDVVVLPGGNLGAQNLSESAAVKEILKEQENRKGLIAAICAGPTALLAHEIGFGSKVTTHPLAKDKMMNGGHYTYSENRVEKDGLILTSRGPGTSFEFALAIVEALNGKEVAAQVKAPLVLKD
Experiment: Hit validation and pure-compound testing in the PARK7 FP assay with JYQ-107
Assay type: biochemical
Settings: crude compounds, 0.25 µM; read-out: % Inhibition 0.25 µM
Reply with just the number (in %).

// solved cases for inhibition at 0.25 µM follow
N#CN1CC[C@@H](C(=O)Nc2nc3c(s2)CN(C(=O)c2cn(C4CCC4)nn2)CC3)C1 :: 52.3
N#CN1CC[C@@H](C(=O)Nc2nc3c(s2)CN(C(=O)c2ccc(Cl)c(N4CCCS4(=O)=O)c2)CC3)C1 :: 65.4
N#CN1CC[C@@H](C(=O)Nc2nc3c(s2)CN(C(=O)c2cn(CCc4ccccc4)nn2)CC3)C1 :: 54.4
N#CN1CC[C@@H](C(=O)Nc2nc3c(s2)CN(C(=O)c2cc(-n4ccnc4)ccn2)CC3)C1 :: 52.2

Kindly review the next compound as well.
Could you share what inhibition at 0.25 µM was measured for Cc1c[nH]c(=O)n1-c1cccc(C(=O)N2CCc3nc(NC(=O)[C@@H]4CCN(C#N)C4)sc3C2)c1 , tested on UniProtKB Q99497?
44

====

Biological target: PARK7 (Homo sapiens, UniProt Q99497)
Sequence (Q99497 1-189): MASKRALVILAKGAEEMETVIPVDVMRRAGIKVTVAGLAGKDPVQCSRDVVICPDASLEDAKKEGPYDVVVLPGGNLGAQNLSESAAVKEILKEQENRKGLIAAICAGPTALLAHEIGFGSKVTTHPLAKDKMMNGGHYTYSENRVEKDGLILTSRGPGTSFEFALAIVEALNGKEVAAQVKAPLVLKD
Experiment: High-throughput screen of the crude compound library, PARK7 fluorescence polarization (FP) assay with FP reagent JYQ-107
Assay type: biochemical
Conditions: 1.25 µM, crude compound library, FP reagent JYQ-107; read-out: HTS FP assay %Inhibition (1.25 µM)
Measured Endpoint: inhibition at 1.25 µM

// solved cases for inhibition at 1.25 µM follow
CC(=O)Oc1ccccc1C(=O)N1CCc2nc(NC(=O)[C@@H]3CCN(C#N)C3)sc2C1 :: 67.9%
CNS(=O)(=O)c1ccc(-c2ccccc2OC(F)(F)F)c(C(=O)N2CCc3nc(NC(=O)[C@@H]4CCN(C#N)C4)sc3C2)c1 :: 72%
N#CN1CC[C@@H](C(=O)Nc2nc3c(s2)CN(C(=O)CCc2cccnc2)CC3)C1 :: 62.7%

Consider the compound Cc1ccccc1-n1cc(C(=O)N2CCc3nc(NC(=O)[C@@H]4CCN(C#N)C4)sc3C2)cn1 and give its measured inhibition at 1.25 µM.
87.5%

Consider the compound N#CN1CC[C@@H](C(=O)Nc2nc3c(s2)CN(C(=O)c2cccc(-c4ncon4)c2)CC3)C1 and give its measured inhibition at 1.25 µM.
93.4%

====

inhibition at 1.25 µM values, listed per item
target: PARK7 (Homo sapiens, UniProt Q99497); test: High-throughput screen of the crude compound library, PARK7 fluorescence polarization (FP) assay with FP reagent JYQ-107; assay type: biochemical; conditions: 1.25 µM, crude compound library; read-out: HTS FP assay %Inhibition (1.25 µM)
Reply with just the number (in %).

// solved cases for inhibition at 1.25 µM follow
N#CN1CC[C@@H](C(=O)Nc2nc3c(s2)CN(C(=O)Cc2cnn(Cc4ccccc4)c2)CC3)C1 [compound 303] :: 80.8
N#CN1CC[C@@H](C(=O)Nc2nc3c(s2)CN(C(=O)c2c[nH]nc2-c2cccnc2)CC3)C1 [compound 56] :: 67.6
N#CN1CC[C@@H](C(=O)Nc2nc3c(s2)CN(C(=O)Cc2ccc(-n4cccc4)cc2)CC3)C1 [compound 309] :: 80.2

Could you share what inhibition at 1.25 µM was measured for Cc1nc(-c2cccnc2)sc1C(=O)N1CCc2nc(NC(=O)[C@@H]3CCN(C#N)C3)sc2C1 [compound 128] , tested on PARK7 (Homo sapiens, UniProt Q99497)?
76.5

====

Target: UniProt:Q99497
Assay: High-throughput screen of the crude compound library, PARK7 fluorescence polarization (FP) assay with FP reagent JYQ-107
Assay type: biochemical
Settings: 1.25 µM, crude compound library, FP reagent JYQ-107; read-out: HTS FP assay %Inhibition (1.25 µM)
Text: Therefore, taking JYQ-88 as a starting point, we conducted an optimization to further improve the molecule in terms of inhibitory potency, specificity, and cellular uptake. […] We next performed a high-throughput screen of this crude compound library using our in-house developed PARK7 fluorescence polarization (FP) assay.[15]
Measured Endpoint: inhibition at 1.25 µM
Hi, when you answer, please include the unit after the number. Thanks!

// solved cases for inhibition at 1.25 µM follow
N#CN1CC[C@@H](C(=O)Nc2nc3c(s2)CN(C(=O)C2CCN(C(=O)N4CCOCC4)CC2)CC3)C1 :: 71.7%
CC(C)(C)OC(=O)N1C[C@@H](O)C[C@@H]1C(=O)N1CCc2nc(NC(=O)[C@@H]3CCN(C#N)C3)sc2C1 :: 68.1%
N#CN1CC[C@@H](C(=O)Nc2nc3c(s2)CN(C(=O)c2ccc4cc5ccccc5cc4c2)CC3)C1 :: 79.5%
CN1C(=O)C[C@@H](C(=O)N2CCc3nc(NC(=O)[C@@H]4CCN(C#N)C4)sc3C2)[C@@H]1c1cccnc1 :: 59.5%
N#CN1CC[C@@H](C(=O)Nc2nc3c(s2)CN(C(=O)c2cc(S(=O)(=O)Nc4cccc(F)c4)ccc2F)CC3)C1 :: 72.5%
N#CN1CC[C@@H](C(=O)Nc2nc3c(s2)CN(C(=O)c2ccc(S(=O)(=O)N4CCCCCC4)cc2)CC3)C1 :: 74.8%

Kindly review the next molecule as well.
Consider the molecule N#CN1CC[C@@H](C(=O)Nc2nc3c(s2)CN(C(=O)c2ccc(/N=N/c4ccccc4)cc2)CC3)C1 and give its measured inhibition at 1.25 µM.
84.3%

====

Molecular target: UniProt:Q99497
Sequence (Q99497 1-189): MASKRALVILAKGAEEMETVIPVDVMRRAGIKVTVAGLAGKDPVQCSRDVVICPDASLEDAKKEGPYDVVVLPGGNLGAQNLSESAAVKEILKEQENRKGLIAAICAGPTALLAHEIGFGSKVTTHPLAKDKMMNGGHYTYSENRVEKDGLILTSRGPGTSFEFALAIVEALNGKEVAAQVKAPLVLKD
Assay: Hit validation and pure-compound testing in the PARK7 FP assay with JYQ-107
Format: biochemical
Conditions: crude compounds, 0.5 µM; read-out: % Inhibition 0.5 µM
Measured Endpoint: inhibition at 0.5 µM (%)
Reply with just the number (in %).

// solved cases for inhibition at 0.5 µM follow
Cc1nc(-c2cnn(C)c2)sc1C(=O)N1CCc2nc(NC(=O)[C@@H]3CCN(C#N)C3)sc2C1 :: 78
N#CN1CC[C@@H](C(=O)Nc2nc3c(s2)CN(C(=O)c2cc(-c4ccc(Cl)s4)[nH]n2)CC3)C1 :: 63.2
N#CN1CC[C@@H](C(=O)Nc2nc3c(s2)CN(C(=O)CCn2nc(C(F)(F)F)cc2C2CC2)CC3)C1 :: 79.2

Consider the compound N#CN1CC[C@@H](C(=O)Nc2nc3c(s2)CN(C(=O)c2ccc(Oc4cccc(Cl)c4)cn2)CC3)C1 and give its measured inhibition at 0.5 µM.
63.1

Consider the compound Cc1ccc([C@@H]2C[C@H]2C(=O)N2CCc3nc(NC(=O)[C@@H]4CCN(C#N)C4)sc3C2)s1 and give its measured inhibition at 0.5 µM.
79

Consider the compound Cc1ccc(-c2cc(C(=O)N3CCc4nc(NC(=O)[C@@H]5CCN(C#N)C5)sc4C3)[nH]n2)o1 and give its measured inhibition at 0.5 µM.
77.6

Consider the compound COc1ccc(C(=O)N2CCc3nc(NC(=O)[C@@H]4CCN(C#N)C4)sc3C2)cc1S(=O)(=O)N1CCCCCC1 and give its measured inhibition at 0.5 µM.
89.1

Consider the compound N#CN1CC[C@@H](C(=O)Nc2nc3c(s2)CN(C(=O)c2cccc(COc4cccc(F)c4)c2)CC3)C1 and give its measured inhibition at 0.5 µM.
78.2
